Tested on: Escherichia coli TOP10;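 also: peptides expressed intracellularly from a pBAD plasmid library in pooled LB shake-flask culture, induced with 0.3% L-arabinose, DNA abundance read by NGS, three biological replicates, DESeq2 with apeglm shrinkage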
assay name: shrunken log2 fold change of peptide-encoding DNA abundance (4.5 h post-induction vs induction); higher = less antimicrobial activity (less host growth inhibition)
measurement parameters: time post-induction: 4.5 h; library: site-saturation at positions 5, 18, 19, 20
property measured: shrunken log2 fold change

{"columns": ["query sequence", "property measured", "observed measurement"],
 "data": [
  ["RRIRWRPPRLPRPRPRPTAAPRP", "shrunken log2 fold change", 1.65],
  ["RRIRPRPPRLPRPRPRPVASPRP", "shrunken log2 fold change", 0.00755],
  ["RRIRKRPPRLPRPRPRPLVKPRP", "shrunken log2 fold change", 0.195],
  ["RRIRDRPPRLPRPRPRPWQIPRP", "shrunken log2 fold change", 0.0319],
  ["RRIRLRPPRLPRPRPRPKDAPRP", "shrunken log2 fold change", -0.11],
  ["RRIRFRPPRLPRPRPRPGNNPRP", "shrunken log2 fold change", -0.276],
  ["RRIRFRPPRLPRPRPRPRDHPRP", "shrunken log2 fold change", 0.015],
  ["RRIRSRPPRLPRPRPRPASHPRP", "shrunken log2 fold change", -0.167]
]}
